target: Rap^3T; test: Microscale thermophoresis (MST) of peptide binding to Rap^3T; parameters: species or system Bacillus phage phi3T; details: MST, Hill model, target 2e-8, MST-Power Medium, Nano - RED, 25.0°C; replicate 2 (second merge-set, c4); read-out: EC50 (Hill fit)
No end group written: not given here.
reportedProperty: EC50 (nM)
Answer in nM, number only, no unit symbol.

Considering RRGHTASIGFTDGHSYDIA [Long1] , its EC50 with Rap^3T was recorded as 134
